Reported MDCK Permeability (MDR1-MDCK); Mean; Papp(B-A) (10^−6 cm/s) by item:
- Test system: MDR1-MDCK cell monolayers
- PROTOCOL DESCRIPTION: MDR1/MDCK permeability assay
- Format: in vitro ADME
- DETAILS: B to A; Table 4

Consider the reported MDCK Permeability (MDR1-MDCK); Mean; Papp(B-A) (10^−6 cm/s) for these compounds:
COMPOUND	REPORTED
CCC1(c2cccc(C(C)C)c2)C2=C(CC(C)(C)CC2=O)Nc2ncccc21 (single isomer, unassigned) [Compound 1011B]	28 10^−6 cm/s
CCC1(c2cccc(-c3cccnc3)c2)C2=C(CC(C)(C)CC2=O)Nc2ncccc21 (single isomer, unassigned) [Compound 1015A]	44 10^−6 cm/s

In: Find the measured MDCK Permeability (MDR1-MDCK); Mean; Papp(B-A) (10^−6 cm/s) of CCC1(c2ccccc2)C2=C(CC3(CCC3)CC2=O)Nc2ncccc21 (single isomer, unassigned) [Compound 110B] and report it.
Out: 27 10^−6 cm/s

In: Dear colleague, please send me the reported MDCK Permeability (MDR1-MDCK); Mean; Papp(B-A) (10^−6 cm/s) for CCC1(c2ccccc2)C2=C(CC3(CCC3)CC2=O)Nc2ncc(F)cc21 (single isomer, unassigned) [Compound 1008B] when you can.
Out: 31 10^−6 cm/s

In: Specify measured MDCK Permeability (MDR1-MDCK); Mean; Papp(B-A) (10^−6 cm/s) for CCC1(c2cccc(-c3ccncc3C)c2)C2=C(CC(C)(C)CC2=O)Nc2ncccc21 (single isomer, unassigned) [Compound 1020B] .
Out: 24 10^−6 cm/s

In: Please supply the value of reported MDCK Permeability (MDR1-MDCK); Mean; Papp(B-A) (10^−6 cm/s) for the item CCC1(c2cccc(-c3ccncc3)c2)C2=C(CC(C)(C)CC2=O)Nc2ncccc21 (single isomer, unassigned) [Compound 1017A]
Out: 32 10^−6 cm/s

----------
- Test system: MDR1
- PROTOCOL DESCRIPTION: MDR1/MDCK permeability assay
- Type: in vitro ADME
- DETAILS: dog, MDCK-MDR1, pH 7.4, B to A; Table 3
REPORTED ENDPOINT: Papp B→A at 120 min, 5 µM (×10⁻⁶ cm/s)
Write the value in ×10⁻⁶ cm/s as a bare number.

In: Could you please provide reported Papp B→A at 120 min, 5 µM for CCC1(c2ccccc2)C2=C(CC(C)(C)CC2=O)Nc2ncc(C(F)(F)F)cc21 (single isomer, unassigned) [Compound 133A] ? Thanks!
Out: 8.2

----------
- TARGET DESC: GSK3a (GST-full length GSK3a) (Homo sapiens, UniProt P49840)
- Construct: GST-full length GSK3a [SignalChem G08-10G]; purchased SignalChem G08-10G
- Sequence (P49840 whole entry): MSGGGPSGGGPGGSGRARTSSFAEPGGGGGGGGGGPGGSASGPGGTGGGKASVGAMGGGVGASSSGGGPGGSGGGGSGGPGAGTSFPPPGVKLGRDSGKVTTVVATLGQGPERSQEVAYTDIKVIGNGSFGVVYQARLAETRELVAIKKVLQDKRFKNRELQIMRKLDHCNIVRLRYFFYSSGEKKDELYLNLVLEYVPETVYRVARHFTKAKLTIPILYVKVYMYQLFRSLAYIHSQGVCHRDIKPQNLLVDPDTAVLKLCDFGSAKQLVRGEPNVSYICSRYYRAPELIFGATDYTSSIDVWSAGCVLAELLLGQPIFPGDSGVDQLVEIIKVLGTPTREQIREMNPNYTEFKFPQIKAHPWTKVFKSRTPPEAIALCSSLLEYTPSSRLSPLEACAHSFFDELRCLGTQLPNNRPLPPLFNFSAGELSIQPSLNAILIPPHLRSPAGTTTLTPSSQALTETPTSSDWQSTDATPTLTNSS
- PROTOCOL DESCRIPTION: GSK3a TR-FRET kinase inhibition assay
- Type: biochemical
- DETAILS: 1 mM ATP; Table 5; read-out: GSK3α TR-FRET 1 mM ATP Average IC50
Listing of entries alongside the reported IC50.

Use the examples below as a reference point.
COMPOUND	IC50
CC1(C)CC(=O)C2=C(C1)Nc1ncc(F)cc1C2(C)c1cccc(C(F)F)c1 (single isomer, unassigned) [623A]	5 to 20 µM
C=C(C)c1cnc2c(c1C#N)C(C)(c1ccccc1)C1=C(CC(C)(C)CC1=O)N2 (single isomer, unassigned) [620A]	5 to 20 µM
CC1(C)CC2=C(C(=O)N1)C(C)(c1cccc(S(C)(=O)=O)c1)c1cccnc1N2 (single isomer, unassigned) [630B]	5 to 20 µM
CC1(C)CC2=C(C(=O)N1)C(C)(c1ccccc1)c1c(ncc(C(F)F)c1C#N)N2 (single isomer, unassigned) [628A]	1 to 5 µM
CC1(C)CC2=C(C(=O)[C@H]1F)[C@@](C)(c1ccccc1)c1c(ncc(F)c1C#N)N2 (single isomer, unassigned) [Compound 616C]	5 to 20 µM

The record that follows has no IC50 shown yet.
In: Specify measured IC50 for CC1(C)CC(=O)C2=C(C1)Nc1ncc(C(C)(F)F)c(C#N)c1C2(C)c1ccccc1 (single isomer, unassigned) [631A] .
Out: 5 to 20 µM

----------
- TARGET DESC: GSK3a (GST-full length GSK3a) (Homo sapiens, UniProt P49840)
- Construct: GST-full length GSK3a [SignalChem G08-10G]; purchased SignalChem G08-10G
- PROTOCOL DESCRIPTION: GSK3a TR-FRET kinase inhibition assay
- Format: biochemical
- DETAILS: 4 μM ATP; read-out: GSK3α TR-FRET 4 μM ATP GMean IC50
REPORTED ENDPOINT: IC50

COMPOUND	TARGET DESC	IC50
CCC1(c2cccc(-c3ccncc3OC)c2)C2=C(CC(C)(C)CC2=O)Nc2ncc(F)cc21 (single isomer, unassigned) [Compound 1037A]	GSK3a (GST-full length GSK3a) (Homo sapiens, UniProt P49840)	1 to 5 µM
CCC1(c2cccc(-c3cnn(C)c3)c2)C2=C(CC(C)(C)CC2=O)Nc2ncccc21 (single isomer, unassigned) [Compound 1018A]	GSK3a (GST-full length GSK3a) (Homo sapiens, UniProt P49840)	> 5 µM
CCC1(c2cccc(-c3ccnc4c3CCC4)c2)C2=C(CC(C)(C)CC2=O)Nc2ncccc21 (single isomer, unassigned) [Compound 1034B]	GSK3a (GST-full length GSK3a) (Homo sapiens, UniProt P49840)	≤ 0.1 µM
CCC1(c2ccccc2)C2=C(CC(C)(C)CC2=O)Nc2ncccc21 (single isomer, unassigned) [102 A]	GSK3a (GST-full length GSK3a) (Homo sapiens, UniProt P49840)	≤ 0.1 µM
CCC1(c2cccc(-c3ccnc4c3CCCC4)c2)C2=C(CC(C)(C)CC2=O)Nc2ncccc21 (single isomer, unassigned) [Compound 1039A]	GSK3a (GST-full length GSK3a) (Homo sapiens, UniProt P49840)	0.1 to 1 µM
CCC1(c2cccc(-c3c(C)nn(C)c3C)c2)C2=C(CC(C)(C)CC2=O)Nc2ncccc21 (single isomer, unassigned) [Compound 150B]	GSK3a (GST-full length GSK3a) (Homo sapiens, UniProt P49840)	≤ 0.1 µM
CCC1(c2cccc(-c3cccnc3)c2)C2=C(CC(C)(C)CC2=O)Nc2ncccc21 (single isomer, unassigned) [Compound 1015A]	GSK3a (GST-full length GSK3a) (Homo sapiens, UniProt P49840)	≤ 0.1 µM
CCC1(c2cccc(-c3ccnn3C)c2)C2=C(CC(C)(C)CC2=O)Nc2ncccc21 (single isomer, unassigned) [Compound 1019B]	GSK3a (GST-full length GSK3a) (Homo sapiens, UniProt P49840)	> 5 µM

In: Return the recorded IC50 value; entry: CCC1(c2cccc(O)c2)C2=C(CC(C)(C)CC2=O)Nc2ncccc21 (single isomer, unassigned) [Compound 1004A]
Out: ≤ 0.1 µM

----------
Reported IC50 values for the following compounds.
- TARGET DESC: GSK3a (GST-full length GSK3a) (Homo sapiens)
- Construct: GST-full length GSK3a [SignalChem G08-10G]; purchased SignalChem G08-10G
- PROTOCOL DESCRIPTION: GSK3a TR-FRET kinase inhibition assay
- Format: biochemical
- DETAILS: 4 μM ATP; read-out: GSK3α TR-FRET 4 μM ATP GMean IC50
- Description: TR-FRET assay was performed in a white, 384 well, low volume, flat bottom plate (Grenier). After a 30 minute preincubation in assay buffer with the indicated concentration of compound, the kinase activity was initiated by the addition of the substrates. […] After 60 min at room temperature the plate was read on Envision plate reader using Ex: 340 nm, Em: 615 nm and […]. The normalized 665/615 Signal ratio versus log compound concentration was analyzed by XLFIT to yield IC50 values.

In the examples that follow, each entry is paired with its recorded IC50.
COMPOUND	REPORTED
CCC1(c2cccc(-c3ccncc3C)c2)C2=C(CC(C)(C)CC2=O)Nc2ncc(F)cc21 (single isomer, unassigned) [Compound 1031B]	≤ 100 nM
CCC1(c2cccc(-c3cncn3C(C)C)c2)C2=C(CC(C)(C)CC2=O)Nc2ncccc21 (single isomer, unassigned) [Compound 149B]	100 to 1000 nM
CCC1(c2cccc(-c3ccnc(C)c3C)c2)C2=C(CC(C)(C)CC2=O)Nc2ncccc21 (single isomer, unassigned) [147 B]	≤ 100 nM
CCC1(c2cccc(-c3cnn(C)c3)c2)C2=C(CC(C)(C)CC2=O)Nc2ncccc21 (single isomer, unassigned) [Compound 1018B]	≤ 100 nM
CCC1(c2ccccc2)C2=C(CC(C)(C)NC2=O)Nc2ncccc21 (single isomer, unassigned) [Compound 1002A]	> 5000 nM

In: Under GSK3a (GST-full length GSK3a) (Homo sapiens), report IC50 for CCC1(c2cccc(-c3ccccn3)c2)C2=C(CC(C)(C)CC2=O)Nc2ncccc21 (single isomer, unassigned) [Compound 1016A]
Out: ≤ 100 nM

In: // output IC50; input CCC1(c2cccc(-c3cncn3C(C)C)c2)C2=C(CC(C)(C)CC2=O)Nc2ncc(F)cc21 (single isomer, unassigned) [Compound 1038A] ; system GSK3a (GST-full length GSK3a) (Homo sapiens)
Out: ≤ 100 nM

In: Provide IC50, recorded with GSK3a (GST-full length GSK3a) (Homo sapiens), of CCC1(c2cccc(-c3ccnc4c3CCCC4)c2)C2=C(CC(C)(C)CC2=O)Nc2ncccc21 (single isomer, unassigned) [Compound 1039B]
Out: ≤ 100 nM

In: Using GSK3a (GST-full length GSK3a) (Homo sapiens) as the test system, report measured IC50 of CC1(C)CC(=O)C2=C(C1)Nc1ncccc1C2c1ccccc1 (stereo not drawn) [Compound C1, reference compound] .
Out: > 5000 nM

In: # return IC50 for CCC1(c2ccccc2)C2=C(CC(C)(C)CC2=O)Nc2ncc(C(F)(F)F)cc21 (single isomer, unassigned) [133 B] , test system: GSK3a (GST-full length GSK3a) (Homo sapiens)
Out: ≤ 100 nM
